The values you see were collected from patent US20260335277A1.

Assay: In vivo PK after subcutaneous application (50% ClearSol/PBS pH 7.4)
Design: species or system mouse
Conditions: mouse, in vivo; mice, 5 mg/kg sc; n = 3
Reported Endpoint: Cmax (ng/mL)
Number in ng/mL, nothing else.

Given the compound CC1=CC(C)C2C(C=CC3C(C)C=CC=CC(C)OC(=O)C(C)C(=O)CC(=O)C32)C1 (stereo not shown) , what is its reported Cmax? 125

----------
Test system: E. faecium DSM-20477
Experiment: MIC testing (broth microdilution, EUCAST)
Type: cell-based
Conditions: Enterococcus faecium, DSM20477, E. faecium DSM-20477
Reported Endpoint: MIC
Numeric answer plus unit only.

Compound	Tested On	MIC
CC1=C[C@@H](C)[C@H]2[C@@H]3C(=O)[C@@](C)(Cl)C(=O)[C@H](C)C(=O)O[C@@H](C)/C=C/C=C\[C@@H](C)[C@@H]3C=C[C@@H]2C1 [ChA-4′Me]	E. faecium DSM-20477	0.8 µg/mL
CC1=CC(C)C2C(C=CC3C(C)C=CC=CC(C)OC(=O)CC(=O)CC(=O)C32)C1 (centres unmarked) [dehalogenil-2′DM, 2′Demethyldehalogenil]	E. faecium DSM-20477	0.8 µg/mL
CC1=CC(C)C2C(C=CC3C(C)C=CC=CC(C)OC(=O)C(C)C(=O)CC(=O)C32)C1 (centres unmarked) [dehalogenil]	E. faecium DSM-20477	0.025 µg/mL
CC1=C[C@@H](C)[C@H]2[C@@H]3C(=O)[C@@](F)(Cl)C(=O)[C@H](C)C(=O)O[C@@H](C)/C=C/C=C\[C@@H](C)[C@@H]3C=C[C@@H]2C1 [ChA-4′F]	E. faecium DSM-20477	0.8 µg/mL

Please turn your attention to the following entry.
Given the compound C=C1C[C@H]2C=C[C@@H]3[C@@H](C(=O)C(Cl)(Cl)C(=O)[C@H](C)C(=O)O[C@@H](C)/C=C/C=C\[C@H]3C)[C@@H]2[C@H](C)C1Cl (some centres unmarked) [ChA-9′Cl] , what is its reported MIC? 0.2 µg/mL
